- Test system: Pig-A mutant phenotype RBCs and RETs
- COND: 28 consecutive days oral gavage, 6 male rats per group; maximum observed on d42
ASSAY_METRIC: Maximum Avg. Mutant Cell Freq., Mutant RBCs

Sample records with Maximum Avg. Mutant Cell Freq., Mutant RBCs:
O=C(O)CCCc1ccc(N(CCCl)CCCl)cc1 [Chlorambucil] :: 21 Mutant RBCs (d42) × 10^−6
S=P(N1CC1)(N1CC1)N1CC1 [Thiotepa] :: 69 Mutant RBCs (d42) × 10^−6
O=S1(=O)CCCO1 [1,3-Propane Sultone, 1,3-propane sultone] :: 72 Mutant RBCs (d42) × 10^−6

(Q) What does the data say about its Maximum Avg. Mutant Cell Freq., Mutant RBCs? Entry: O=P1(N(CCCl)CCCl)NCCCO1 (centres unmarked) [Cyclophosphamide]
(A) 3 Mutant RBCs (d42) × 10^−6

(Q) And the next one, N[C@@H](Cc1ccc(N(CCCl)CCCl)cc1)C(=O)O [Melphalan] ?
(A) 23 Mutant RBCs (d42) × 10^−6

Values from patent US9133505B2
